This collection of values is drawn from paper PMC7935953.

target: His-GABARAPL1 (human, UniProt Q9H0R8 1-117); experiment: ITC; 0.6 mM peptide titrated into 0.06 mM His-LC3/GABARAP protein in 20 steps at 25 °C; 50 mM Tris pH 7.0, 25 mM NaCl; one-site binding model; conditions: both partners purified
Sequence (Q9H0R8 whole entry): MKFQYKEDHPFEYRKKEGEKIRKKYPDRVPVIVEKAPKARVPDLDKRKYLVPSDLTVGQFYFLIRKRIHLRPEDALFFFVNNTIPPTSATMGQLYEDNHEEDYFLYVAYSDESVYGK
MEASUREMENT_NAME: Kd (µM)
API: value field is a number in µM; no unit string.

Recorded Kd (binder GSGTWTLVDEG (human EPG5 residues 546-556, holding the LIR1 motif 550WTLV553; source: synthetic peptide (LifeTein)) [hEPG5-LIR1 peptide] ): 8.54
